# key: entry, value: viability at 48 h, 20 µM
Assay: Cell viability assay in differentiated neuronal cells (MTT), N2A
Type: cell-based
Settings: mouse, read-out: % Cell viability ± SD, N2A
Description: In the present disclosure outlined herein, a focused library of cannabidiol analogues were studied for possible neuro-protective potential employing cell line-based stress model systems which mimic the biological stress conditions in vitro (J Cell Biochem., 2018, 119(8), 6482-6491). Human neuroblastoma cells (SHSY5Y) and mouse neuroblastoma cells (N2A) were procured from American Type Culture Collection (ATCC). […] Eventually, the OD at 490 nm excitation was measured using a 96-well plate reader. […]

chemical_string	output_unit	viability at 48 h, 20 µM
C=C(C)[C@@H]1CCC(C)=C[C@H]1c1c(O)cc(CCCCC)c(CN2CCN(c3ccc(Cl)cc3)CC2)c1O	%	95.9
C=C(C)[C@@H]1CCC(C)=C[C@H]1c1c(O)cc(CCCCC)c(CN2CCN(C(C)=O)CC2)c1O	%	102
C=C(C)[C@@H]1CCC(C)=C[C@H]1c1c(O)cc(CCCCC)c(CN2CCC(O)CC2)c1O	%	97.7
C=C(C)[C@@H]1CCC(C)=C[C@H]1c1c(O)cc(CCCCC)c(CN2CCC(Cc3ccccc3)CC2)c1O	%	102

---

# key: entry, value: inhibition at 5 µM
Tested on: nitric oxide (NO) production in RAW264.7 macrophages
Assay: In vitro anti-inflammatory activity: nitric oxide production (Griess) in LPS-exposed RAW264.7 macrophages
Assay type: cell-based, mouse
Settings: Mus musculus, RAW264.7; 5 μM, LPS 24 hrs; read-out: % NO Inhibition ± SD
measured_attribute: inhibition at 5 µM (%)

chemical_string	measured_attribute	output_unit	experimental_value
C=C(C)[C@@H]1CCC(C)=C[C@H]1c1c(O)cc(CCCCC)c(CN2CCN(c3ncccn3)CC2)c1O	inhibition at 5 µM	%	4.8
C=C(C)[C@@H]1CCC(C)=C[C@H]1c1c(O)c(CN2CCOCC2)c(CCCCC)c(CN2CCOCC2)c1O	inhibition at 5 µM	%	15.6
C=C(C)[C@@H]1CCC(C)=C[C@H]1c1c(O)cc(CCCCC)c(CN2CCC(Cc3ccccc3)CC2)c1O	inhibition at 5 µM	%	8.4
C=C(C)[C@@H]1CCC(C)=C[C@H]1c1c(O)cc(CCCCC)c(CN2CCN(C)CC2)c1O	inhibition at 5 µM	%	10.7

---

Test: Cell viability assay in macrophage RAW264.7 cells (MTT)
Format: cell-based
Conditions: mouse, RAW264.7, 10 μM, read-out: % cell viability ± SD

compound	viability at 24 h, 10 µM (%)
C=C(C)[C@@H]1CCC(C)=C[C@H]1c1c(O)cc(CCCCC)c(CN2CCC(C(C)C)CC2)c1O [A3]	89.9
C=C(C)[C@@H]1CCC(C)=C[C@H]1c1c(O)cc(CCCCC)c(CN2CCN(CC)CC2)c1O [A9]	87.6
C=C(C)[C@@H]1CCC(C)=C[C@H]1c1c(O)cc(CCCCC)c(CN2CCC(C(F)(F)F)CC2)c1O [A6]	92
C=C(C)[C@@H]1CCC(C)=C[C@H]1c1c(O)cc(CCCCC)c(CN2CCN(C(C)=O)CC2)c1O [A11]	91.6
C=C(C)[C@@H]1CCC(C)=C[C@H]1c1c(O)cc(CCCCC)cc1O [B1, cannabidiol]	91
C=C(C)[C@@H]1CCC(C)=C[C@H]1c1c(O)cc(CCCCC)c(CN2CCN(c3ncccn3)CC2)c1O [A15]	89.9
